Please provide measured abundance fitness for the entries that follow.
B1: Zinc finger homeobox protein 3, residues 2643 to 2698; numbered along this chain, Q15911 (parent)
chain: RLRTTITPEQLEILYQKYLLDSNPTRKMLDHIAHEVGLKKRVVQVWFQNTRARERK

Variants of: B1
Test: abundance fitness (aPCA) (normalised: wild type 0, dead -1); higher = more abundant; growth selection in yeast, the domain comes from the species named
Details: Homo sapiens
Give bare numbers.

// worked examples, abundance fitness included
H31G = 0.198
Q44S = -0.044
H31S = 0.215
T4G = -0.002

Record abundance fitness per entry; entries follow.
1. V45R
2. H34N
3. L19E
4. Q10H
5. L29M
6. K56E

Response:
-0.561
-0.044
-0.254
-0.356
0.028
0.466

Hey, just so you know, these numbers are from the Human Domainome abundance scans (Beltran et al. 2025).
